The reported measurements were obtained from patent US20250296971A1.

Could you please report measured IC50 for the items listed next?
# target_or_system: GIPR (CHO-K1-hGIPR cells) (Homo sapiens, UniProt P48546)
# Construct: host or cells: CHO-K1
# Sequence (P48546 22-466): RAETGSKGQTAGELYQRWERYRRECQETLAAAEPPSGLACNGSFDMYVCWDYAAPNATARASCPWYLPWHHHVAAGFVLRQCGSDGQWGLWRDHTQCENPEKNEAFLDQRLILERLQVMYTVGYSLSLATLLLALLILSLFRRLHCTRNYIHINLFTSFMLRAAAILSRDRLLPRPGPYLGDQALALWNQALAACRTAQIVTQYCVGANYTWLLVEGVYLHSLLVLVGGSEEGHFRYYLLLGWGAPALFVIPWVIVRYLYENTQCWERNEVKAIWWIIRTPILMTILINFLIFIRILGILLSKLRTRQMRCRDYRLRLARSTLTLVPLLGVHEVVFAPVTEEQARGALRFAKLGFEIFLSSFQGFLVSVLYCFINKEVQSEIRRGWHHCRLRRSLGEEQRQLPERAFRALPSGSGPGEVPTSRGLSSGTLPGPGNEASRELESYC
# measurement_description: FACS binding assay
# run_parameters: competition with 20 nM GIP-057, 4° C. for 1 hour, read-out: pIC50 Category (converted)
*1 amine or outer side, *2 acyl side, *3 side chain or, on linkers, in order; H or OH if unused. Where a SMILES comes first, the peptide text is derived from it. Bridges are numbered along the chain shown (N, C = ends). [ ]: non-standard residue; d: D form. The star is where a group is joined. X3 = O=C(O)CN1CCN(CC(=O)O)CCN(CC(=O)NCCCOCCOCCOCCCN*)CCN(CC(=O)O)CC1; Trp(5-Cl) = N[C@@H](Cc1c[nH]c2ccc(Cl)cc12)C(=O)O; Phe(3,4-Cl2) = N[C@@H](Cc1ccc(Cl)c(Cl)c1)C(=O)O; Pyridine(2,6-diCH2) = c1cc(C[*:1])nc(C[*:2])c1; 1Nal = N[C@@H](Cc1cccc2ccccc12)C(=O)O; mXylylene = c1cc(C[*:1])cc(C[*:2])c1; Hyp = O=C(O)[C@@H]1C[C@@H](O)CN1; 2Thi = N[C@@H](Cc1cccs1)C(=O)O; Suc = O=C(CCC(=O)[*:2])[*:1]; Thp = NC1(C(=O)O)CCOCC1; Aib = CC(C)(N)C(=O)O; Sar = CNCC(=O)O

compound	IC50
CC[C@H](C)[C@@H]1NC(=O)[C@H](CC(C)C)NC(=O)C2(CCOCC2)NC(=O)[C@@H](NC(=O)[C@@H](CC(C)C)NC(=O)[C@H](CCCNC(=N)N)NC(=O)[C@@H]2C[C@@H](O)CN2C(=O)[C@H](Cc2c[nH]c3ccc(Cl)cc23)NC(=O)[C@H](Cc2c[nH]c3ccccc23)NC(=O)[C@H](CC(=O)O)NC(C)=O)CSCc2cccc(n2)CSC[C@@H](C(N)=O)NC1=O [GIP-376] (Ac-DW[Trp(5-Cl)][Hyp]R[dL]C[Thp]LIC-NH2; linker 7-11 via Pyridine(2,6-diCH2))	< 10 nM
CC[C@H](C)[C@@H]1NC(=O)[C@H](CC(C)C)NC(=O)C2(CCOCC2)NC(=O)[C@@H](NC(=O)[C@@H](CC(C)C)NC(=O)[C@H](CCC(=O)O)NC(=O)[C@@H]2C[C@@H](O)CN2C(=O)[C@H](Cc2c[nH]c3ccc(Cl)cc23)NC(=O)[C@H](Cc2c[nH]c3ccccc23)NC(=O)[C@H](CC(=O)O)NC(C)=O)CSSC[C@@H](C(N)=O)NC1=O [GIP-364] (Ac-DW[Trp(5-Cl)][Hyp]E[dL]C[Thp]LIC-NH2; disulfide 7-11)	100 to 794 nM
CC[C@H](C)[C@@H]1NC(=O)[C@H](CC(C)C)NC(=O)[C@@H](C)NC(=O)[C@@H](NC(=O)[C@H](CC(C)C)NC(=O)[C@@H](CCC(=O)O)NC(=O)[C@@H]2CCCN2C(=O)[C@H](Cc2c[nH]c3ccccc23)NC(=O)[C@H](Cc2c[nH]c3ccccc23)NC(=O)[C@H](CC(=O)O)NC(=O)CCC(=O)NCCCOCCOCCOCCCNC(=O)CN2CCN(CC(=O)O)CCN(CC(=O)O)CCN(CC(=O)O)CC2)CSCc2cccc(c2)CSC[C@@H](C(N)=O)NC1=O [GIP-269] ({X3-Suc}-DWWP[dE]LC[dA]LIC-NH2; linker 7-11 via mXylylene)	100 to 794 nM

The following compounds each have a reported value; give each one's IC50.
1. CC[C@H](C)[C@@H]1NC(=O)[C@H](CC(C)C)NC(=O)[C@H](C)NC(=O)[C@@H](NC(=O)[C@H](CC(C)C)NC(=O)[C@H](CCC(=O)O)NC(=O)[C@@H]2CCCN2C(=O)[C@H](Cc2c[nH]c3ccccc23)NC(=O)[C@H](Cc2c[nH]c3ccccc23)NC(C)=O)CSCc2cccc(c2)CSC[C@@H](C(N)=O)NC1=O [GIP-324] (Ac-WWPELCALIC-NH2; linker 6-10 via mXylylene)
2. CC[C@H](C)[C@@H]1NC(=O)[C@H](CC(C)C)NC(=O)C(C)(C)NC(=O)[C@@H](NC(=O)[C@H](Cc2cccs2)NC(=O)[C@H](CCC(=O)O)NC(=O)[C@@H]2CCCN2C(=O)[C@H](Cc2cccc3ccccc23)NC(=O)[C@H](Cc2c[nH]c3ccccc23)NC(=O)[C@H](CC(=O)O)NC(C)=O)CSCc2cccc(c2)CSC[C@@H](C(N)=O)NC1=O [GIP-343] (Ac-DW[1Nal]PE[2Thi]C[Aib]LIC-NH2; linker 7-11 via mXylylene)
3. CC(=O)N[C@@H](CC(=O)O)C(=O)N[C@@H](Cc1c[nH]c2ccccc12)C(=O)N[C@@H](Cc1c[nH]c2ccc(Cl)cc12)C(=O)N1C[C@H](O)C[C@H]1C(=O)N[C@@H](CCC(=O)O)C(=O)N[C@H](CC(C)C)C(=O)N[C@H]1CSCc2cccc(n2)CSC[C@@H](C(N)=O)NC(=O)[C@H](Cc2ccccc2)NC(=O)[C@H](CC(C)C)NC(=O)C2(CCOCC2)NC1=O [GIP-266] (Ac-DW[Trp(5-Cl)][Hyp]E[dL]C[Thp]LFC-NH2; linker 7-11 via Pyridine(2,6-diCH2))
4. CC[C@H](C)[C@@H]1NC(=O)[C@H](CC(C)C)NC(=O)C2(CCOCC2)NC(=O)[C@@H](NC(=O)[C@@H](CC(C)C)NC(=O)[C@@H]2CCCN2C(=O)[C@@H]2C[C@@H](O)CN2C(=O)[C@H](Cc2c[nH]c3ccc(Cl)cc23)NC(=O)[C@H](Cc2c[nH]c3ccccc23)NC(=O)[C@H](CC(=O)O)NC(C)=O)CSCc2cccc(n2)CSC[C@@H](C(N)=O)NC1=O [GIP-398] (Ac-DW[Trp(5-Cl)][Hyp]P[dL]C[Thp]LIC-NH2; linker 7-11 via Pyridine(2,6-diCH2))
5. CC[C@H](C)[C@@H]1NC(=O)[C@H](CC(C)C)NC(=O)C2(CCOCC2)NC(=O)[C@@H](NC(=O)[C@@H](CC(C)C)NC(=O)[C@H](CCC(=O)O)NC(=O)CN(C)C(=O)[C@H](Cc2ccc(Cl)c(Cl)c2)NC(=O)[C@H](Cc2ccc(Cl)c(Cl)c2)NC(=O)[C@H](CC(=O)O)NC(C)=O)CSCc2cccc(n2)CSC[C@@H](C(N)=O)NC1=O [GIP-357] (Ac-D[Phe(3,4-Cl2)][Phe(3,4-Cl2)][Sar]E[dL]C[Thp]LIC-NH2; linker 7-11 via Pyridine(2,6-diCH2))
6. CC[C@H](C)[C@@H]1NC(=O)[C@H](CC(C)C)NC(=O)[C@H](C)NC(=O)[C@@H](NC(=O)[C@H](CC(C)C)NC(=O)[C@@H](CCC(=O)O)NC(=O)[C@@H]2CCCN2C(=O)[C@H](Cc2c[nH]c3ccccc23)NC(=O)[C@H](Cc2c[nH]c3ccccc23)NC(=O)[C@H](CC(=O)O)NC(=O)[C@H](Cc2ccc(O)cc2)NC(=O)[C@@H](N)CCSC)CSCc2cccc(c2)CSC[C@@H](C(N)=O)NC1=O [GIP-245] (H-MYDWWP[dE]LCALIC-NH2; linker 9-13 via mXylylene)

["> 1000 nM", "> 1000 nM", "10 to 79.4 nM", "10 to 79.4 nM", "> 1000 nM", "10 to 79.4 nM"]
